Biological target: Tumour suppressor p53/oncoprotein Mdm2 (Homo sapiens, UniProt Q00987)
Sequence (P04637 whole entry): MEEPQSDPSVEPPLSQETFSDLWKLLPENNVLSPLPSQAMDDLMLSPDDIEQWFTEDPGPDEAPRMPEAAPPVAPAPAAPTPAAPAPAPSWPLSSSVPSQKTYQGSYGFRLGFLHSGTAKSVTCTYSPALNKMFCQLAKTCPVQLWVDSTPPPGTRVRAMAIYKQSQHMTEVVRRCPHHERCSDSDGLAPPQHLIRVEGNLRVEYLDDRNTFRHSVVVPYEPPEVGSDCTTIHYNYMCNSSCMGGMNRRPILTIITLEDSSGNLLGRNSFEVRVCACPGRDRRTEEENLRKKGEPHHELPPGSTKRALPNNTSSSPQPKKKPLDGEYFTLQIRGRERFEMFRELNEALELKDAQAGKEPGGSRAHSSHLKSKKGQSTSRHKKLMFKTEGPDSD
Sequence (Q00987 whole entry): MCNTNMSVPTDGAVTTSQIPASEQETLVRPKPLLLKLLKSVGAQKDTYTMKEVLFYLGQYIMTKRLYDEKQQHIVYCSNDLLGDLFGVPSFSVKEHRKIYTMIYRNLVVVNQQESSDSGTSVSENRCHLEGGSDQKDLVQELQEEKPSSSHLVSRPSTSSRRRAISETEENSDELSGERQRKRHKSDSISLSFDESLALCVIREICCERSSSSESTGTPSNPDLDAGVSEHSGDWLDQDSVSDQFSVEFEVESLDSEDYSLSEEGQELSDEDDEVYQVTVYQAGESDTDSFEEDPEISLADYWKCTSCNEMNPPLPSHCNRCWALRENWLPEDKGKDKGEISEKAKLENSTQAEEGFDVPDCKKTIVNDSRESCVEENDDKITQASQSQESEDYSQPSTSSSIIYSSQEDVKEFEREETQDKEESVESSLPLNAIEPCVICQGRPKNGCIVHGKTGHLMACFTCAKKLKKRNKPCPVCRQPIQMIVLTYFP
Assay: Inhibition of HDM2-p53 (unknown origin) protein-protein interaction by fluorescence polarization peptide displacement assay
pIC50: −log10 of the molar value.
Use 7 as the dividing line for pIC50, with the line itself on the label 1 side and lower values as label 0.

1. CCC[C@H]1N(C(=O)c2c(C(F)(F)F)ccnc2OCC(=O)O)CCC[C@@]1(Oc1csc(C(F)(F)F)c1)C(=O)N1CCN(c2ccccc2OCCO)CC1
label 1

Q: Please check the record `CCC[C@H]1N(C(=O)c2c(C(F)(F)F)ccc[n+]2[O-])CCC[C@@]1(Oc1csc(C(F)(F)F)c1)C(=O)N1CCN(c2ccccc2OCCO)CC1` and state if its pIC50 is at or above 7.
A: label 1

Q: // inclusive: pIC50 at least 7? input: `CCC[C@H]1N(C(=O)c2cccnc2)CCC[C@@]1(Oc1csc(C(F)(F)F)c1)C(=O)N1CCN(c2ccccc2OCCO)CC1`
A: label 0

Q: For this molecule, is measured pIC50 7 or higher? `C=CCNc1nccc(C(F)(F)F)c1C(=O)N1CCC[C@@](Oc2csc(C(F)(F)F)c2)(C(=O)N2CCN(c3ccccc3OCCO)CC2)[C@H]1CCC`
A: label 0

Q: Determine whether measured pIC50 meets or exceeds 7 for `CCC[C@H]1N(C(=O)c2cc(F)ccc2C(F)(F)F)CCC[C@@]1(Oc1csc(C(F)(F)F)c1)C(=O)N1CCN(c2ccccc2OCCO)CC1`
A: label 1

* * *

Molecular target: Cytochrome P450 3A4 (Homo sapiens)
Sequence (P08684 whole entry): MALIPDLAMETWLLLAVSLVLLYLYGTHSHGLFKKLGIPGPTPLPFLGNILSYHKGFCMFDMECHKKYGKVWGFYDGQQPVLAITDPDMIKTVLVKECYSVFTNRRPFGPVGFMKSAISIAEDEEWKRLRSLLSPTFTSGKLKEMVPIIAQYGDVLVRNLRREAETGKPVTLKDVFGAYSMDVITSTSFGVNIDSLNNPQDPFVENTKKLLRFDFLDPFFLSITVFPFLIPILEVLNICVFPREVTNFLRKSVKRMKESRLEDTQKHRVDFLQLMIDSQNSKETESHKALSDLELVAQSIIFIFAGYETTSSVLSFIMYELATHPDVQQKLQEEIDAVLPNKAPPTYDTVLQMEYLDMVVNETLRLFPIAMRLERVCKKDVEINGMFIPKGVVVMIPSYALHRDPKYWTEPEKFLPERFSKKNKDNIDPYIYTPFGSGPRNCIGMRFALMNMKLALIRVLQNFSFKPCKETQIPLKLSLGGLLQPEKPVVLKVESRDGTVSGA
Assay: Inhibition of CYP3A4 (unknown origin) using testosterone as substrate pretreated with NADPH
Type: ADME
Recorded IC50 determines the group label, using low-valued: < 600 nM; mid-valued: ≥ 600 nM and < 4000 nM; high-valued: ≥ 4000 nM

As a guide, the following entries are already answered.
1) CCC[C@H]1N(C(=O)c2c(C(F)(F)F)ccnc2O)CCC[C@@]1(Oc1csc(C(F)(F)F)c1)C(=O)N1CCN(c2ccccc2OC)CC1
high-valued
2) CCC[C@H]1N(C(=O)c2cnccc2C(F)(F)F)CCC[C@@]1(Oc1csc(C(F)(F)F)c1)C(=O)N1CCN(c2ccccc2OC)CC1
low-valued
3) CCC[C@H]1N(C(=O)c2ncccc2C(F)(F)F)CCC[C@@]1(Oc1csc(C(F)(F)F)c1)C(=O)N1CCN(c2ccccc2OCCO)CC1
low-valued
4) C=CCOc1nccc(C(F)(F)F)c1C(=O)N1CCC[C@@](Oc2csc(C(F)(F)F)c2)(C(=O)N2CCN(c3ccccc3OCCO)CC2)[C@H]1CCC
high-valued
5) CCC[C@H]1N(C(=O)c2c(C(F)(F)F)ccc[n+]2[O-])CCC[C@@]1(Oc1csc(C(F)(F)F)c1)C(=O)N1CCN(c2ccccc2OCCO)CC1
mid-valued
6) CCC[C@H]1N(C(=O)c2c(C(F)(F)F)ccnc2OCCO)CCC[C@@]1(Oc1csc(C(F)(F)F)c1)C(=O)N1CCN(c2ccccc2OCCO)CC1
mid-valued

Q: Band of `CCC[C@H]1N(C(=O)c2c(F)cccc2C(F)(F)F)CCC[C@@]1(Oc1csc(C(F)(F)F)c1)C(=O)N1CCN(c2ccccc2OCCO)CC1` ?
A: low-valued

Q: Where would `CCC[C@H]1N(C(=O)c2cnccc2C(F)(F)F)CCC[C@@]1(Oc1csc(C(F)(F)F)c1)C(=O)N1CCN(c2ccccc2OCCCC(=O)O)CC1` land among the classes by reported IC50?
A: mid-valued

Q: Hi there! Could you help me figure out the category for `CCC[C@H]1N(C(=O)c2c(C(F)(F)F)ccnc2O)CCC[C@@]1(Oc1csc(C(F)(F)F)c1)C(=O)N1CCN(c2ccccc2OCCCC(=O)O)CC1` please?
A: high-valued

Q: // bin(item) where item = `CCC[C@H]1N(C(=O)c2c(C(F)(F)F)ccnc2OCC(=O)O)CCC[C@@]1(Oc1csc(C(F)(F)F)c1)C(=O)N1CCN(c2ccccc2OCCO)CC1`
A: high-valued

Q: Which bin should I file `CCC[C@H]1N(C(=O)c2cnccc2C)CCC[C@@]1(Oc1csc(C(F)(F)F)c1)C(=O)N1CCN(c2ccccc2OCCO)CC1` under?
A: mid-valued

Q: Looking at `CCC[C@H]1N(C(=O)c2cnccc2C(F)(F)F)CCC[C@@]1(Oc1csc(C(F)(F)F)c1)C(=O)N1CCN(c2ccccc2OCCO)CC1` , which class would you pick?
A: low-valued

Q: Textbook exercise: identify the category of the compound given here, `CCC[C@H]1N(C(=O)c2c(C(F)(F)F)ccnc2OCCN(C)C)CCC[C@@]1(Oc1csc(C(F)(F)F)c1)C(=O)N1CCN(c2ccccc2OCCO)CC1` , according to its measured value.
A: mid-valued

Q: Which class holds `CCC[C@H]1N(C(=O)c2c(C(F)(F)F)ccnc2O)CCC[C@@]1(Oc1csc(C(F)(F)F)c1)C(=O)N1CCN(c2ccccc2OCCO)CC1` ?
A: high-valued
